B1: Far upstream element-binding protein 3, residues 75 to 150; numbered along this chain, Q96I24 (parent)
chain: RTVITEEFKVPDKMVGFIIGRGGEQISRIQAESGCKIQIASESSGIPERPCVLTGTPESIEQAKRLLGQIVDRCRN

# Variants of: B1
# protocol text: abundance fitness (aPCA) (normalised: wild type 0, dead -1); higher = more abundant; growth selection in yeast, the domain comes from the species named
# condition info: Homo sapiens
Can you tell me abundance fitness for the items I'm about to list?

Tell me measured abundance fitness for E7G please.
-0.083

Tell me measured abundance fitness for C74Y please.
-0.126

Tell me measured abundance fitness for A31M please.
-0.07

Tell me measured abundance fitness for G55A please.
-0.855

Tell me measured abundance fitness for V15Y please.
-0.141

Tell me measured abundance fitness for G68E please.
-0.026

Tell me measured abundance fitness for E6A please.
-0.067

Tell me measured abundance fitness for Q62R please.
-0.043

Tell me measured abundance fitness for T56H please.
-0.106

Tell me measured abundance fitness for G45Q please.
-0.046

Tell me measured abundance fitness for Q25S please.
-0.026

Tell me measured abundance fitness for A63H please.
-0.911

Tell me measured abundance fitness for R21T please.
0.009

Tell me measured abundance fitness for C51F please.
-0.009

Tell me measured abundance fitness for G20R please.
-0.168

Tell me measured abundance fitness for A40G please.
-0.018

Tell me measured abundance fitness for T5L please.
-0.314

Tell me measured abundance fitness for D12T please.
-0.073

Tell me measured abundance fitness for I60R please.
-0.21

Tell me measured abundance fitness for A40Q please.
0.044

Tell me measured abundance fitness for S27H please.
-0.117

Tell me measured abundance fitness for S41V please.
-0.089

Tell me measured abundance fitness for C74R please.
0.008

Tell me measured abundance fitness for I70G please.
-0.205

Tell me measured abundance fitness for Q30E please.
0.029

Tell me measured abundance fitness for S43W please.
-0.155

Tell me measured abundance fitness for G16P please.
-0.029

Tell me measured abundance fitness for A31S please.
-0.029

Tell me measured abundance fitness for V3Q please.
-0.084

Tell me measured abundance fitness for T5P please.
-0.394

Tell me measured abundance fitness for P47Y please.
-0.12

Tell me measured abundance fitness for S41A please.
-0.035

Tell me measured abundance fitness for Q25C please.
-0.025

Tell me measured abundance fitness for R28S please.
-0.085

Tell me measured abundance fitness for A63C please.
-0.03

Tell me measured abundance fitness for I70W please.
-0.102

Tell me measured abundance fitness for N76L please.
-0.028

Tell me measured abundance fitness for V10E please.
-0.631

Tell me measured abundance fitness for K36T please.
-0.051

Tell me measured abundance fitness for Q38H please.
-0.059

Tell me measured abundance fitness for I18H please.
-0.279

Tell me measured abundance fitness for T56M please.
-0.183

Tell me measured abundance fitness for V3F please.
-0.066

Tell me measured abundance fitness for C35E please.
-0.539

Tell me measured abundance fitness for Q69E please.
0.025

Tell me measured abundance fitness for C74M please.
-0.021

Tell me measured abundance fitness for K64I please.
-0.275

Tell me measured abundance fitness for E42A please.
-0.039

Tell me measured abundance fitness for R49M please.
-0.169

Tell me measured abundance fitness for R49I please.
-0.141

Tell me measured abundance fitness for R65I please.
0.057

Tell me measured abundance fitness for R21G please.
-0.064

Tell me measured abundance fitness for E24D please.
-0.053

Tell me measured abundance fitness for Q38P please.
-0.829

Tell me measured abundance fitness for Q69S please.
-0.002

Tell me measured abundance fitness for C35N please.
-0.539

Tell me measured abundance fitness for S27V please.
-0.092

Tell me measured abundance fitness for I18W please.
-0.243

Tell me measured abundance fitness for E7P please.
-0.136

Tell me measured abundance fitness for V15N please.
-0.349

Tell me measured abundance fitness for I18Q please.
-0.234

Tell me measured abundance fitness for V3G please.
-0.166

Tell me measured abundance fitness for P11G please.
-0.254

Tell me measured abundance fitness for I29H please.
-0.622

Tell me measured abundance fitness for I37L please.
-0.158

Tell me measured abundance fitness for G23F please.
-0.117

Tell me measured abundance fitness for Q62W please.
-0.102

Tell me measured abundance fitness for G68M please.
0.001

Tell me measured abundance fitness for R28L please.
-0.143

Tell me measured abundance fitness for L66N please.
-0.221

Tell me measured abundance fitness for R49N please.
-0.155

Tell me measured abundance fitness for S43M please.
-0.079

Tell me measured abundance fitness for M14D please.
-0.126

Tell me measured abundance fitness for T5C please.
-0.203

Tell me measured abundance fitness for I4V please.
-0.047

Tell me measured abundance fitness for V10P please.
-0.514

Tell me measured abundance fitness for C35S please.
-0.276

Tell me measured abundance fitness for C74K please.
-0.027

Tell me measured abundance fitness for E42I please.
-0.139

Tell me measured abundance fitness for R73T please.
0.019

Tell me measured abundance fitness for D12P please.
-0.058

Tell me measured abundance fitness for S33A please.
-0.138

Tell me measured abundance fitness for Q69K please.
-0.046

Tell me measured abundance fitness for E61N please.
-0.064

Tell me measured abundance fitness for V10Q please.
-0.675

Tell me measured abundance fitness for G23Y please.
-0.182

Tell me measured abundance fitness for Q69N please.
-0.059

Tell me measured abundance fitness for L67Y please.
-1.04

Tell me measured abundance fitness for I26S please.
-0.436

Tell me measured abundance fitness for I19N please.
-0.001

Tell me measured abundance fitness for D72N please.
-0.155
